inhibition values for the compounds below.
- measured-on: Protein kinase C theta type (Homo sapiens) (UniProt Q04759)
- Sequence (Q04759 whole entry, looked up, the tested form may be a part): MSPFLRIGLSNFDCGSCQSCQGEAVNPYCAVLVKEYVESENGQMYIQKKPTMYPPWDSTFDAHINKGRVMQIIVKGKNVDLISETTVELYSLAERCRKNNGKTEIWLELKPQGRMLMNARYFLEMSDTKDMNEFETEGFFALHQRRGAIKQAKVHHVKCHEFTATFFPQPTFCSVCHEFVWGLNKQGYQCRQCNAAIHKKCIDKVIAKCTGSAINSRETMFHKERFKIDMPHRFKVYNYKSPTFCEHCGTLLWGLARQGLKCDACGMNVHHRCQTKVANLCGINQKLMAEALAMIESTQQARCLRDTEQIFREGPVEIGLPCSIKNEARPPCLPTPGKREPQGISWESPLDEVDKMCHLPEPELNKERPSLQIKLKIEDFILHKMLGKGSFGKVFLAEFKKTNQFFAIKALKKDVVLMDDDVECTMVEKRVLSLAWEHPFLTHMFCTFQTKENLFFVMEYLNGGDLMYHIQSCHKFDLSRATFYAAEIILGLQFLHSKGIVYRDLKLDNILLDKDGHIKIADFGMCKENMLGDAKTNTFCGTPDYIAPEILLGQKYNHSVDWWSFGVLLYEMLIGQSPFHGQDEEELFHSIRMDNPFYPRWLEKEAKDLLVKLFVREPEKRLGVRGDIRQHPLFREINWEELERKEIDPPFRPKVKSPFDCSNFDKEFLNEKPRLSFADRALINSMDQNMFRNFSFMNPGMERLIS
- assay-info: Inhibition of N-terminal GST-fused PKCtheta (1-706) expressed in baculovirus expression system at 30 uM after 1 hr by off-chip mobility shift assay relative to control
Only the number, expressed in %, is required.

Past entries and their recorded results:
| input-smiles | measured-on | inhibition, % |
| --- | --- | --- |
| CCCCCCCCCCCCCC[C@H]1OC[C@@H](N)[C@@H]1O | Protein kinase C theta type (Homo sapiens) (UniProt Q04759) | 51.2 |
| CCCCCCCCCCCCCC[C@@H]1OC[C@H](N)[C@@H]1O | Protein kinase C theta type (Homo sapiens) (UniProt Q04759) | 39.8 |
| CCCCCCCCCCCCC/C=C/[C@@H](O)[C@H](CO)N(C)C | Protein kinase C theta type (Homo sapiens) (UniProt Q04759) | 47.1 |

Name the recorded inhibition for CCCCCCCCCCCCCC[C@@H]1OC[C@@H](N)[C@@H]1O .
37.1
